B1: Azoarcus group I ribozyme (parent)
chain: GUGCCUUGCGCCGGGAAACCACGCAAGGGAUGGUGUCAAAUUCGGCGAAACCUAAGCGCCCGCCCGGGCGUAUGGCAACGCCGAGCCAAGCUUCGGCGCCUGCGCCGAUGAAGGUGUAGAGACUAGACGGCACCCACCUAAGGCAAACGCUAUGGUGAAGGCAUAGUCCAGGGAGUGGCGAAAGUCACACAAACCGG

# Variants of: B1
# measurement_description: reverse-splicing fitness (ratio to wild type); higher = more active; in vitro selection; Mg2+ level not given
Classification by reverse-splicing fitness | ranges: group 1: < 0.009; group 2: ≥ 0.009 and < 0.02; group 3: ≥ 0.02

{"columns": ["variant_label", "label"],
 "data": [
  ["C82A A111C A120C A145G U176A", "group 2"],
  ["A111C A120G C150A", "group 3"],
  ["C82G A111C C150U C169A U176A", "group 2"],
  ["C82U A111G A120C A145U C169G U176C", "group 1"],
  ["C82G A111U A120G C169U U176G", "group 1"],
  ["A120G C150U C169U U176A", "group 3"],
  ["C82A A120C A145C C150A U176G", "group 1"],
  ["C82U A111C A120U C150G C169U", "group 1"],
  ["A111U A145G C150A C169U U176G", "group 1"],
  ["A120C A145U C150U U176G", "group 3"],
  ["C82A A111G A120U A145C C150A U176G", "group 1"],
  ["C82G A120G A145C C169G U176C", "group 3"],
  ["C82U A120G A145C C169U U176G", "group 1"],
  ["C82U A111U A145U U176A", "group 3"],
  ["C82U A111C A120G A145G C150U C169A", "group 2"],
  ["C82A A111U A145U C169G", "group 2"],
  ["C82G A111G A120G C150A C169G U176C", "group 3"],
  ["C82A A111U A120U A145U", "group 3"],
  ["C82U A111C A120G C150A C169A U176A", "group 2"],
  ["A111U A120U C150A", "group 3"],
  ["A111G C150G C169G", "group 2"],
  ["A145C C150G C169U", "group 3"],
  ["A111G A120U A145G C150G C169U U176G", "group 1"],
  ["A111G A145G C150U C169A", "group 3"],
  ["A111U A120U A145C U176G", "group 3"],
  ["C82G A111G A120U A145C C150A C169A U176G", "group 1"],
  ["C82U A111C A120G A145G C150U C169G U176C", "group 2"],
  ["C82U A111C A120G C150G C169G U176G", "group 1"],
  ["C82G A111C A120C A145U C150U C169A U176C", "group 2"],
  ["C82A A111U A145G C169G", "group 2"]
]}
